Listed next: entries and their corresponding RXR:RXR CV-1 (%) Antag..
molecular target: RXRα homodimer (RXR:RXR) (Homo sapiens); assay: RXR homodimer co-transfection assay in CV-1 cells; type: cell-based; settings: maximal repression (100%) in presence of 32 nM LGD1069
Sequence (P19793 whole entry): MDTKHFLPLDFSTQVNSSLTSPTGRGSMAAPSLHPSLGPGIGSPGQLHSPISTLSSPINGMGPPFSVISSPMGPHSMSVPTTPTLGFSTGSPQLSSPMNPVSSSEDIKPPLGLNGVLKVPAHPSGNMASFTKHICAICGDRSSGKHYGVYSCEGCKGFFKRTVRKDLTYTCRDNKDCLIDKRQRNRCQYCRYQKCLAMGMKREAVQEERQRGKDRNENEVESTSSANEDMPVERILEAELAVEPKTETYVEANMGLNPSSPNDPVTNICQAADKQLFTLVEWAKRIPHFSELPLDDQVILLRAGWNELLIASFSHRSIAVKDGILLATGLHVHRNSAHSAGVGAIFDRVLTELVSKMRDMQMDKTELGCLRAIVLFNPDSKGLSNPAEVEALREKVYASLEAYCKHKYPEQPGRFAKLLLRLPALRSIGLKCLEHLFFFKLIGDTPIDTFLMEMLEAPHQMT
OBSERVED PROPERTY: RXR:RXR CV-1 (%) Antag.

COMPOUND: CCCCCCCOc1c(/C(C)=C/C=C/C(C)=C/C(=O)O)cc(C(C)(C)C)cc1C(C)(C)C [Compound L5]
OBSERVED PROPERTY: RXR:RXR CV-1 (%) Antag.
UNITS: %
RECORDED RESULT: 94

COMPOUND: CCCCOc1c(/C(C)=C/C=C/C(C)=C/C(=O)O)cc(C(C)(C)C)cc1C(C)(C)C [Compound L4]
OBSERVED PROPERTY: RXR:RXR CV-1 (%) Antag.
UNITS: %
RECORDED RESULT: 92

COMPOUND: COc1c(/C(C)=C/C=C/C(C)=C/C(=O)O)cc(C(C)(C)C)cc1C(C)(C)C [Compound L1]
OBSERVED PROPERTY: RXR:RXR CV-1 (%) Antag.
UNITS: %
RECORDED RESULT: 7

COMPOUND: CCCOc1c(/C(C)=C/C=C/C(C)=C/C(=O)O)cc(C(C)(C)C)cc1C(C)(C)C [Compound L3]
OBSERVED PROPERTY: RXR:RXR CV-1 (%) Antag.
UNITS: %
RECORDED RESULT: 90

COMPOUND: CCOc1c(/C(C)=C/C=C/C(C)=C/C(=O)O)cc(C(C)(C)C)cc1C(C)(C)C [Compound L2]
OBSERVED PROPERTY: RXR:RXR CV-1 (%) Antag.
UNITS: %
RECORDED RESULT: 62
